# TGT: GDP-bound KRAS wild-type protein (Homo sapiens)
# Sequence (P01116 1-188 isoform P01116-2): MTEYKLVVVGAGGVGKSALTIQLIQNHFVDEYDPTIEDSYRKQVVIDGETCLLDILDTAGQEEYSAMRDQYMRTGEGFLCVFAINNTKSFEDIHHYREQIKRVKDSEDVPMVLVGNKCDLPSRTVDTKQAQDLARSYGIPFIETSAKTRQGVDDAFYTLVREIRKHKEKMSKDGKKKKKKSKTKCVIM
# ASSAY_NOTES: Binding to KRAS by surface plasmon resonance (SPR), dissociation constant KD
# CONDITION_SUMMARY: 1:1 binding model
ASSAY_READOUT: log10(Kd) (log10 of the value in pM)
Units before log transform: pM; reported quantity: Kd; transform: log10.

Study these solved cases before continuing.
[[record]]
compound = "CCC[C@H]1C(=O)N[C@@H](CC(C)C)C(=O)N(CC)CC(=O)N(C)[C@H]2C/C=C\\CCN(C2=O)[C@@H](Cc2ccc(C)cc2)C(=O)N(C)CC(=O)N[C@@H](CCc2cc(F)c(C(F)(F)F)c(F)c2)C(=O)N2C[C@H](OCC)C[C@H]2C(=O)NC2(CCC2)C(=O)N(C)[C@@H](C2CCCC2)C(=O)N(C)[C@H](C(=O)N(C)C)CC(=O)N1C"
assay_readout = "log10(Kd)"
endpoint_result = 3.63

[[record]]
compound = "CCOC[C@H]1C(=O)N[C@@H]([C@@H](C)CC)C(=O)N(C)CC(=O)N(C)[C@H]2C/C=C\\CCN(C2=O)[C@@H](Cc2ccc(C)cc2)C(=O)N(C)CC(=O)N[C@@H](CCc2ccc(C(F)(F)F)c(OC)c2)C(=O)N2C[C@@H](C)C[C@H]2C(=O)NC2(CC(C)(C)C2)C(=O)N(C)[C@@H](C2CCCC2)C(=O)N(C)[C@H](C(=O)N(CC)CC)CC(=O)N1C"
assay_readout = "log10(Kd)"
endpoint_result = 2.49

[[record]]
compound = "CCC[C@H]1C(=O)N[C@@H]([C@@H](C)CC)C(=O)N(C2CC2)CC(=O)N(C)[C@H]2C/C=C\\CCN(C2=O)[C@@H](CC2CCC(F)(F)CC2)C(=O)N(C)CC(=O)N[C@@H](CCc2ccc(C(F)(F)F)c(OC)c2)C(=O)N2C[C@@H](C)C[C@H]2C(=O)N(C)C2(CCC2)C(=O)N(C)[C@@H](C2CCCC2)C(=O)N(C)[C@H](C(=O)N(C)C)CC(=O)N1C"
assay_readout = "log10(Kd)"
endpoint_result = 2.94


Item: CCOC[C@H]1C(=O)N[C@@H]([C@@H](C)CC)C(=O)N(C)CC(=O)N(C)[C@H]2C/C=C\CCN(C2=O)[C@@H](Cc2ccc(C)cc2)C(=O)N(C)CC(=O)N[C@@H](CCc2cc(F)c(C(F)(F)F)c(F)c2)C(=O)N2C[C@@H](C)C[C@H]2C(=O)NC2(CC(C)(C)C2)C(=O)N(C)[C@@H](C2CCCC2)C(=O)N(C)[C@H](C(=O)N(C)C)CC(=O)N1C | log10(Kd): 2.08

# log10(Kd) (compound: CCCOC[C@H]1C(=O)N[C@@H]([C@@H](C)CC)C(=O)N(C)CC(=O)N(C)[C@H]2C/C=C\CCN(C2=O)[C@@H](CC2CCC(F)(F)CC2)C(=O)N(C)CC(=O)N[C@@H](CCc2ccc(C(F)(F)F)c(OC)c2)C(=O)N2C[C@H](OCC)C[C@H]2C(=O)NC2(CC(C)(C)C2)C(=O)N(C)[C@@H](C(CC)CC)C(=O)N(C)[C@H](C(=O)N(C)C)CC(=O)N1C ) is 2.99

###

# Tested on: human lung cancer strain NCI-H441
# Assay type: cell-based
Recorded IC50 values for a group of molecules are listed next.
Give a bare numeral; the unit µM is implied.

The reported IC50 of the molecule CCC[C@H]1C(=O)N[C@@H]([C@@H](C)CC)C(=O)N(C)CC(=O)N(C)[C@H]2C/C=C\CCN(C2=O)[C@@H](Cc2ccc(C(F)(F)F)cc2)C(=O)N(C)CC(=O)N[C@@H](CCc2ccc3ccn(C)c3c2)C(=O)N2C[C@H](OCC)C[C@H]2C(=O)NC2(CC(C)(C)C2)C(=O)N(C)[C@@H](C(CC)CC)C(=O)N(C)[C@H](C(=O)N(C)C)CC(=O)N1C was 0.086

// IC50 lookup, molecule = CCO[C@@H]1C[C@H]2C(=O)NC3(CC(C)(C)C3)C(=O)N(C)[C@@H](C(CC)CC)C(=O)N(C)[C@H](C(=O)N(C)C)CC(=O)N(C)[C@H]3CCCCCc4ccc(cc4)C[C@@H](C(=O)N(C)CC(=O)N[C@@H](CCc4ccc(C(F)(F)F)c(OC)c4)C(=O)N2C1)N1CC/C=C\C[C@@H](C1=O)N(C)C(=O)CN(C)C(=O)[C@H]([C@@H](C)CC)NC3=O , result: 0.0042

From: patent EP4603105A1
